Listed variants paired with reported yeast fitness
B1: tRNA (parent)
chain: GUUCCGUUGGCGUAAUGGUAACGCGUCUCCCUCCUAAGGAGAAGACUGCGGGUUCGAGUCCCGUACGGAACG

Variants of: B1
Test: yeast fitness relative to wild type (ratio to wild type); higher = fitter; tRNA-Arg(CCU), competitive growth, 37 C, YPD
This sample holds only a part of the variants without activity.
readout: yeast fitness

sequence-variant: C4G C22G U64A A65U
value-reported: ≤ 0.5
//
sequence-variant: G12A C24A A36U C61U
value-reported: 0.618
//
sequence-variant: G25A A70C
value-reported: 1.05
//
sequence-variant: U2A C5A U64G A70C
value-reported: ≤ 0.5
//
sequence-variant: U26C U59A
value-reported: 0.882
//
sequence-variant: C11G C46U C49A C55U A69U
value-reported: 0.536
//
sequence-variant: U2G A21C C22U A70U
value-reported: ≤ 0.5
//
sequence-variant: A21U C33U G38A A45U C62U
value-reported: ≤ 0.5
//
sequence-variant: A14C A20G A42C G48C
value-reported: ≤ 0.5
//
sequence-variant: G12A A20U U32A C49G G63A A65U
value-reported: 0.535
//
sequence-variant: C5A C11G A21U C62U
value-reported: ≤ 0.5
//
sequence-variant: U3C C5A C66U
value-reported: 0.605
//
sequence-variant: G10A A21C C24A C66A
value-reported: ≤ 0.5
//
sequence-variant: G39A U47A C49U U54A
value-reported: ≤ 0.5
//
sequence-variant: U3C C5U U7G C22U C27G G58A
value-reported: ≤ 0.5
//
sequence-variant: A14C A21C C46A C49U
value-reported: ≤ 0.5
//
sequence-variant: U3G G44A G67C
value-reported: ≤ 0.5
//
sequence-variant: A20U G38C A65G
value-reported: ≤ 0.5
//
sequence-variant: C24G C33G A36C A37C G41A A42C A65U
value-reported: ≤ 0.5
//
sequence-variant: U32G U54A G67C
value-reported: ≤ 0.5
//
sequence-variant: U7C C33A A40U A57C
value-reported: 0.662
//
sequence-variant: G23A C31G G52A
value-reported: ≤ 0.5
